- STUDY_TARGET: ActRIIA and ActRIIB (on TGFB/SMAD SBE Reporter HEK293 cells) (human)
- Sequence (chain, as listed by the source, chain 1 of 2): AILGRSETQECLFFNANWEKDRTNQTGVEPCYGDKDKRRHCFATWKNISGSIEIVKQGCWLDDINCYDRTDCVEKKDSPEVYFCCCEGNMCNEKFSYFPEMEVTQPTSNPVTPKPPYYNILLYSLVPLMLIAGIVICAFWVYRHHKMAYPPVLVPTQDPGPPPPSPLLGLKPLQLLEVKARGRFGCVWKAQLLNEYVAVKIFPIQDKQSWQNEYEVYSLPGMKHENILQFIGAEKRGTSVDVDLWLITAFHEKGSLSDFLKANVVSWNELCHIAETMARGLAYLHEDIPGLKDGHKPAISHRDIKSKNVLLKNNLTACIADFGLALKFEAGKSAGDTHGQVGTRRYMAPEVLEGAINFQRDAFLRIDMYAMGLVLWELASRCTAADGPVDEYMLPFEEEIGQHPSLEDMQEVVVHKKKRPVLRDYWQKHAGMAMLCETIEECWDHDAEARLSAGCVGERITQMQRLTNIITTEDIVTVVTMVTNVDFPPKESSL
- Sequence (chain, as listed by the source, chain 2 of 2): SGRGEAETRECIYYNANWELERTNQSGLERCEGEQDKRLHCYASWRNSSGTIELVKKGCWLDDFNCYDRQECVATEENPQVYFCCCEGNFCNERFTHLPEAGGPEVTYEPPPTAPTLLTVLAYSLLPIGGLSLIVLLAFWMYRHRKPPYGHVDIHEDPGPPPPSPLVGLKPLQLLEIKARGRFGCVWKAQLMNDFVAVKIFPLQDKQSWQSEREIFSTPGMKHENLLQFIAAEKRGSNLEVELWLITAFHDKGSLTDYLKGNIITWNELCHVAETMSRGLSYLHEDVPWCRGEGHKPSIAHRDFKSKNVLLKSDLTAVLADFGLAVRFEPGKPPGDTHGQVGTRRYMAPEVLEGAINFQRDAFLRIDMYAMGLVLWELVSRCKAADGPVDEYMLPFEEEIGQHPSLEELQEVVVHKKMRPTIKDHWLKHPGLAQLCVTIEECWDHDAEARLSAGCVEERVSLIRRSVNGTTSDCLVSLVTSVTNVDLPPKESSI
- RUN_DESCRIPTION: cell-based or functional assay
MEASUREMENT_KIND: IC90, Activin SMAD RGA (nM)

binder="Antibody Pfitzauf (antibody, V domains shown, full-length IgG) VH: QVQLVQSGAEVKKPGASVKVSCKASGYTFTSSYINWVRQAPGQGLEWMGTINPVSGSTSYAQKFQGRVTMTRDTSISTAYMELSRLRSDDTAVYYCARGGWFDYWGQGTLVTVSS VL: QSALTQPASVSGSPGQSITISCTGTSSDVGSGNYVNWYQQHPGKAPKLMIYGVSKRESGVSNRFSGSKSGNTASLTISGLQAEDEADYYCGTFAGGKYYGVFGGGTKLTVL" measurement_kind="IC90, Activin SMAD RGA" endpoint_value=3.03
binder="Antibody Floischbrühsupp (antibody, V domains shown, full-length IgG) VH: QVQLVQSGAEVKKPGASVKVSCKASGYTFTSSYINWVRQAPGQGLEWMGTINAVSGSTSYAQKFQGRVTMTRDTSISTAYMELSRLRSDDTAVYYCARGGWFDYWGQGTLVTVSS VL: QSALTQPASVSGSPGQSITISCTGTSSDVGSFNYVNWYQQHPGKAPKLMIKGVSKRESGVSNRFSGSKSGNTASLTISGLQAEDEADYYCGTFAGGAYYGVFGGGTKLTVL" measurement_kind="IC90, Activin SMAD RGA" endpoint_value=4.69
binder="Antibody Hutzelbrot (antibody, V domains shown, full-length IgG) VH: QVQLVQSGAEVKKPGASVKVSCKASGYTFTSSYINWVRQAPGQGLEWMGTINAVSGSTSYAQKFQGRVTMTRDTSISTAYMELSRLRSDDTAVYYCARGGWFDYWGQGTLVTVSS VL: QSALTQPASVSGSPGQSITISCTGTSSDVGSKNYVNWYQQHPGKAPKLMIYGVSKRQSGVSNRFSGSKSGNTASLTISGLQAEDEADYYCGTFAGGDYYGVFGGGTKLTVL" measurement_kind="IC90, Activin SMAD RGA" endpoint_value=3.62
